Test system: SW620
PROTOCOL_DESCRIPTION: Cell viability, MTT assay, SW620
Type: cell-based
ASSAY_SETUP: Homo sapiens, SW-620, SW620 (Colon)
RESULT_TYPE: IC50 (µM)

>  <QUERY_SMILES>
Cc1cnc2ccc(-c3cccc(F)c3)nn12

>  <UNITS>
µM

>  <IC50>
62

$$$$

(a) CC(=O)Nc1cccc(-c2ccc3ncc(C)n3n2)c1
(b) CC(=O)Nc1cc(F)cc(-c2ccc3[nH]cc(-c4ccccc4)c3n2)c1
(c) CC(=O)Nc1cccc(-c2ccc3[nH]cc(-c4ccccc4)c3n2)c1
In: Sort (3 compounds) by IC50: min first. A complete answer lists every label in the requested sequence.
Out: c, b, a

----------
PROTOCOL_DESCRIPTION: Caco2 permeability
Type: in vitro ADME
ASSAY_SETUP: human, Caco-2; Conc. 5 uM
RESULT_TYPE: Papp A→B at 5 uM (×10⁻⁶ cm/s)

(A) CC(=O)Nc1cc(F)cc(-c2ccc3ncc(C)n3n2)c1 [JGJ026]
(B) CC(=O)Nc1cc(F)cc(-c2ccc3[nH]cc(-c4ccccc4)c3n2)c1 [JGJ037]
In: # return whichever of A and B has the smaller Papp A→B at 5 uM // output: label of the selected item
Out: B
(B: 0.44 ×10⁻⁶ cm/s, A: 27.2 ×10⁻⁶ cm/s)

----------
PROTOCOL_DESCRIPTION: Microsomal stability, Human
Type: in vitro ADME
ASSAY_SETUP: microsomes, Conc. 30 uM
RESULT_TYPE: CLint scaled at 30 uM (L/h/kg)

(1) CC(=O)Nc1cccc(-c2ccc3ncc(C)n3n2)c1
(2) Cc1cnc2ccc(-c3cccc(F)c3)nn12
In: # return whichever of 1 and 2 has the smaller CLint scaled at 30 uM // output: label of the selected item
Out: 1
(1: 1.14 L/h/kg, 2: 9.66 L/h/kg)

----------
PROTOCOL_DESCRIPTION: Caco2 permeability
Type: in vitro ADME
ASSAY_SETUP: human, Caco-2; Conc. 30 uM
RESULT_TYPE: Papp A→B at 30 uM (×10⁻⁶ cm/s)

(1) CC(=O)Nc1cccc(-c2ccc3ncc(C)n3n2)c1
(2) Cc1cnc2ccc(-c3cccc(F)c3)nn12
In: Endpoint returns whichever of 1 and 2 has the numerically higher Papp A→B at 30 uM. // output: label of the selected item
Out: 1
(1: 36.2 ×10⁻⁶ cm/s, 2: 24.1 ×10⁻⁶ cm/s)

----------
System: H1975
PROTOCOL_DESCRIPTION: Cell viability, MTT assay, H1975
Type: cell-based
ASSAY_SETUP: Homo sapiens, NCI-H1975, H1975 (Lung)
Method: To measure cell viability, cell titer glow (CTG, Promega CellTiter-Glo 2.0 Assay) and MTT assays (SigmaAldrich, Cell Proliferation Kit I) were performed. Briefly, cells were serum starved overnight prior to seeding in 96-well plates. […] At assay read-out, CellTiter-Glo reagent was added and luminescence was measured after 10-minutes incubation at room temperature. […] Subsequently, medium was removed and 50 μL DMSO was added to solubilize the crystals, and absorbance was measured at 570 nm. […]
RESULT_TYPE: IC50 (µM)

(1) CC(=O)Nc1cccc(-c2ccc3ncc(-c4ccccc4)n3n2)c1
(2) Cc1cnc2ccc(-c3cccc(F)c3)nn12
(3) C=CC(=O)Nc1cc(Nc2nccc(-c3cn(C)c4ccccc34)n2)c(OC)cc1N(C)CCN(C)C [Osimertinib, reference compound]
(4) CC(=O)Nc1cccc(-c2ccc3ncc(C)n3n2)c1
In: Form: Sort by [IC50] Order [ ascending ] A complete answer lists every label in the requested sequence.
Out: 1, 3, 4, 2

----------
Tested on: MCF7
PROTOCOL_DESCRIPTION: Cell viability, CTG, MCF7
Assay type: cell-based
ASSAY_SETUP: Homo sapiens, MCF7 (Breast)
pIC50: −log10 of the molar value.
RESULT_TYPE: pIC50

(A) CC(=O)Nc1cccc(-c2ccc3ncc(C)n3n2)c1
(B) CC(=O)c1c(C)c2cnc(Nc3ccc(N4CCNCC4)cn3)nc2n(C2CCCC2)c1=O [Palbociclib, reference compound]
(C) CC(=O)Nc1cc(F)cc(-c2ccc3[nH]cc(-c4ccccc4)c3n2)c1
In: Hey, quick one: sort these by pIC50, largest value first please. A complete answer lists every label in the requested sequence.
Out: C, B, A
(C: 4.82, B: 4.49, A: 3.94)

----------
PROTOCOL_DESCRIPTION: Caco2 permeability
Assay type: in vitro ADME
ASSAY_SETUP: human, Caco-2; Conc. 30 uM; read-out: Caco2 Mean A-B % Recovery
RESULT_TYPE: recovery at 30 uM (%)

>  <QUERY_SMILES>
CC(=O)Nc1cccc(-c2ccc3ncc(C)n3n2)c1

>  <recovery at 30 uM, %>
87

$$$$
>  <QUERY_SMILES>
Cc1cnc2ccc(-c3cccc(F)c3)nn12

>  <recovery at 30 uM, %>
67.3

$$$$

----------
PROTOCOL_DESCRIPTION: Caco2 permeability
Format: in vitro ADME
ASSAY_SETUP: human, Caco-2; Conc. 5 uM; read-out: Caco2 Mean A-B % Recovery
RESULT_TYPE: recovery at 5 uM (%)

(P) CC(=O)Nc1cc(F)cc(-c2ccc3ncc(C)n3n2)c1 [JGJ026]
(Q) CC(=O)Nc1cc(F)cc(-c2ccc3[nH]cc(-c4ccccc4)c3n2)c1 [JGJ037]
In: Endpoint returns whichever of P and Q has the numerically higher recovery at 5 uM. // output: label of the selected item
Out: P
(P: 84%, Q: 47%)

----------
Test system: H1568
PROTOCOL_DESCRIPTION: Cell viability, MTT assay, H1568
Format: cell-based
ASSAY_SETUP: NCI-H1568, H1568 (Lung)
pIC50: −log10 of the molar value.
RESULT_TYPE: pIC50

(1) CC(=O)Nc1cccc(-c2ccc3ncc(C)n3n2)c1
(2) CC(=O)Nc1cccc(-c2ccc3ncc(-c4ccccc4)n3n2)c1
In: Endpoint returns whichever of 1 and 2 has the numerically higher pIC50. // output: label of the selected item
Out: 2
(2: 4.92, 1: 4.33)

----------
Test system: 22RV1
PROTOCOL_DESCRIPTION: Cell viability, MTT assay, 22RV1
Type: cell-based
ASSAY_SETUP: 22RV1 (Prostate), 96 hr
Description: To measure cell viability, cell titer glow (CTG, Promega CellTiter-Glo 2.0 Assay) and MTT assays (SigmaAldrich, Cell Proliferation Kit I) were performed. Briefly, cells were serum starved overnight prior to seeding in 96-well plates. […] At assay read-out, CellTiter-Glo reagent was added and luminescence was measured after 10-minutes incubation at room temperature. […] Subsequently, medium was removed and 50 μL DMSO was added to solubilize the crystals, and absorbance was measured at 570 nm. […]
RESULT_TYPE: pIC50
// scale note: pIC50 = -log10(conc_M); give the bare number

In: Could you share which pIC50 value was measured for CC(=O)N(C)c1cccc(-c2ccc3nnc(C)n3n2)c1 ?
Out: 3.63

----------
PROTOCOL_DESCRIPTION: Caco2 permeability
Type: in vitro ADME
ASSAY_SETUP: human, Caco-2; Conc. 30 uM
RESULT_TYPE: efflux ratio at 30 uM

>  <QUERY_SMILES>
CC(=O)Nc1cccc(-c2ccc3ncc(C)n3n2)c1

>  <efflux ratio at 30 uM>
0.829

$$$$
>  <QUERY_SMILES>
Cc1cnc2ccc(-c3cccc(F)c3)nn12

>  <efflux ratio at 30 uM>
0.874

$$$$

----------
System: H460
PROTOCOL_DESCRIPTION: Cell viability, MTT assay, H460
Assay type: cell-based
ASSAY_SETUP: H460 (Lung)
RESULT_TYPE: pIC50
// scale note: pIC50 = -log10(conc_M); give the bare number

In: Could you share which pIC50 value was measured for CC(=O)N(C)c1cccc(-c2ccc3nnc(C)n3n2)c1 ?
Out: 3.76

----------
PROTOCOL_DESCRIPTION: Microsomal stability, CD-1 Mouse
Type: in vitro ADME
ASSAY_SETUP: microsomes, Conc. 5 uM
RESULT_TYPE: microsomal CLint at 5 uM (µL/min/mg)

(a) CC(=O)Nc1cc(F)cc(-c2ccc3ncc(C)n3n2)c1
(b) CC(=O)Nc1cc(F)cc(-c2ccc3[nH]cc(-c4ccccc4)c3n2)c1
In: # return whichever of a and b has the smaller microsomal CLint at 5 uM // output: label of the selected item
Out: b

----------
PROTOCOL_DESCRIPTION: Microsomal stability, CD-1 Mouse
Assay type: in vitro ADME
ASSAY_SETUP: microsomes, Conc. 5 uM, read-out: Microsomal stability T½
RESULT_TYPE: half-life at 5 uM (min)

(1) CC(=O)Nc1cc(F)cc(-c2ccc3[nH]cc(-c4ccccc4)c3n2)c1 [JGJ037]
(2) CC(=O)Nc1cc(F)cc(-c2ccc3ncc(C)n3n2)c1 [JGJ026]
In: # return whichever of 1 and 2 has the smaller half-life at 5 uM // output: label of the selected item
Out: 2
(2: 11.8 min, 1: 93 min)
